# assayed-target: T1, HSC70 (HSPA8), His-tagged (UniProt P11142 1-646)
# T1 construct: HSC70 (HSPA8), the constitutive form of HSP70
# T1 sequence (P11142 whole entry): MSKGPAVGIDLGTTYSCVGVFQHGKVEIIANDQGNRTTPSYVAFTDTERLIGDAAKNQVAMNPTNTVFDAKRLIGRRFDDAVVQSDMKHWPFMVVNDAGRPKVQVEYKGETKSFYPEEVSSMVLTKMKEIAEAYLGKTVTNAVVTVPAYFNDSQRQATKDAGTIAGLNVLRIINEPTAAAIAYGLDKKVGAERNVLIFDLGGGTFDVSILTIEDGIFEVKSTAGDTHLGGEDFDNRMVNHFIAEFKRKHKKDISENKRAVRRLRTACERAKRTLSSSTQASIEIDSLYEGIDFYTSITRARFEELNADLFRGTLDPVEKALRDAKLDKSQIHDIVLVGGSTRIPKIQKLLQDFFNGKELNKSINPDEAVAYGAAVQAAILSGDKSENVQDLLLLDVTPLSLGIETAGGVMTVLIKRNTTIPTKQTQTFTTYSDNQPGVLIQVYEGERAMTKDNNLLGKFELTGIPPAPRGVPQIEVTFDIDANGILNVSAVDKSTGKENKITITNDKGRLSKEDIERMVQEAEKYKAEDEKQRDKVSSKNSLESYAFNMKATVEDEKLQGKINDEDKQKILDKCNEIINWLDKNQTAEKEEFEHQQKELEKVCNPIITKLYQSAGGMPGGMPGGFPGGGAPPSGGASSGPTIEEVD
# measurement-notes: ELISA; competition: 1 μM chaperone mixed with soluble peptide (titrated up to 100 μM, or fixed 100 μM in the screens) and bound to immobilised 1097-L; Kd of the competing peptide from linearised competition curves
# condition-context: both partners purified
observed-property: pKd
pKd (log units): -log10 of the concentration in mol/L.

// pKd lookup, key: RTLKQAFADCTVILC (peptide, UniProt P13569 1386-1400, looked up, CFTR, 15-mer numbered by its middle residue 1393, from NBD2; source: synthetic peptide (Lifetein, unmodified, >85% purity)) [CFTR peptide 1393-L, soluble unmodified] 5.98

For SKLFFSWTR (peptide, UniProt P13569 13-21, looked up, CFTR, 9-mer numbered by its central residue 17, from the NT; source: synthetic peptide (Lifetein, unmodified, >85% purity)) [CFTR peptide 17-S] , what is its reported pKd? 5.75

# pKd lookup, item DKILILHEG (peptide, UniProt P13569 614-622, looked up, source: synthetic peptide (Lifetein, unmodified, >85% purity)) [CFTR peptide 618-S] 5.43

# pKd lookup, item TSLLMVIMG (peptide, UniProt P13569 465-473, looked up, source: synthetic peptide (Lifetein, unmodified, >85% purity)) [CFTR peptide 469-S] 5.81

State the recorded pKd for this entry: DCTVILCEH (peptide, UniProt P13569 1394-1402, looked up, source: synthetic peptide (Lifetein, unmodified, >85% purity)) [CFTR peptide 1398-S] 6.05

# get_value(readout='pKd', item= TVILCEHRIEAMLEC (peptide, UniProt P13569 1396-1410, looked up, CFTR, 15-mer numbered by its middle residue 1403, from NBD2; source: synthetic peptide (Lifetein, unmodified, >85% purity)) [CFTR peptide 1403-L, soluble unmodified] ) 5.58

Fill in: pKd of QKVFIFSGT (peptide, UniProt P13569 1291-1299, looked up, source: synthetic peptide (Lifetein, unmodified, >85% purity)) [CFTR peptide 1295-S] is ___ 5.90

May I ask what pKd has been recorded for FGVIPQKVFIFSGTF (peptide, UniProt P13569 1286-1300, looked up, source: synthetic peptide (Lifetein, unmodified, >85% purity)) [CFTR peptide 1293-L, soluble unmodified] ? 5.69
